# maps each entry to its IC50
test system: U-937; experiment: Antiproliferative activity against human U937 cells assessed as cell viability after 96 hrs by CellTiter-Glo luminescence assay; format: functional, cell-based; conditions: U-937, 96 h

// below: answered compounds
Prompt: Send back U-937 IC50 of `CO[C@H]1/C=C\[C@@H](C)CC[C@@H]2C[C@H](C[C@](O)([C@@H]3CSC(=O)N3)O2)OC(=O)/C=C(/C)CC[C@@H]1O` only.
Completion: > 2.5 µg/mL

Prompt: For U-937, give IC50 of the listed compound: C=C1C[C@H](C)C[C@@H]2CC=C[C@@H](C/C=C\C(=O)O[C@H]3C[C@@H](O[C@H]3/C=C/[C@@H]3CC(C)=CC(=O)O3)[C@@H](O)[C@@H](O)C1)O2 [FIIJIANOLIDE D]
Completion: > 2.5 µg/mL

# context switch: different compound, same IC50
Prompt: Answer with IC50 of `C=C1C[C@H](C)C[C@@H]2CC=C[C@@H](C/C=C\C(=O)O[C@H]3C[C@@H](O[C@@]3(/C=C/[C@@H]3CC(C)=CCO3)OC)[C@@H](O)[C@@H](O)C1)O2` measured for U-937.
Completion: > 2.5 µg/mL
